// data source = PubChem BioAssay AID179

Test system: CEM cells HIV-1 protection, formazan growth assay
Assay: NCI AIDS Antiviral Assay;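 active means compounds giving half or more protection of infected cells from virus-caused growth loss, again on retest; inactive means the rest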
One label from this list, please: y for active, n for inactive

Query string: Could you please tell me the result logged for Cc1nc2c3c(ncn2n1)Oc1c(c(-c2ccccc2)nn1-c1ccccc1)C3c1ccc(Cl)cc1 (configuration not stated) in this assay?
Result string: n

Query string: Called result for CC(C)N(C(=O)C12C3C4C5C3C1(C#N)C5C42)C(C)C (configuration not stated)
Result string: n

Query string: Query: recorded result category for CCOc1ccc(NC(=O)CC2Sc3ccccc3NC2=O)cc1 (configuration not stated) in this test
Result string: n

Query string: Hi team, can someone confirm the assay call for `CS(=O)(=O)C1S(=O)(=O)OCCOS1(=O)=O` ?
Result string: n

Query string: In this assay, the call recorded for `NC(=S)Nc1[nH]c(=S)nc2[nH]ccc12` was what?
Result string: y
